Tested on: PHF6
assay-overview: 3' UTR reporter interaction score (median-centred robust z-score of log2 firefly/Renilla activity); higher = less repression of the 3' UTR reporter
condition-details: HEK293T; 48 h
Entries annotated with measured 3' UTR reporter interaction score
Keep the answer to the number alone.

Guide cases for 3' UTR reporter interaction score, answers given:
UUGUGUCAAUAUGCGAUGAUGU 0.901
UUUCCAUAGGUGAUGAGUCAC -0.367
UUUCAAGCCAGGGGGCGUUUUUC -0.209
AGCUCGGUCUGAGGCCCCUCAG 0.229
UCCAGUACCACGUGUCAGGGCCA -0.805

Short answer for UAAACGUGGAUGUACUUGCUUU : 3' UTR reporter interaction score was -1.71

Sure, the documented 3' UTR reporter interaction score for UGGUCUAGGAUUGUUGGAGGAG is -1.9

Record UCCCUGAGACCCUUUAACCUGUG . Reported 3' UTR reporter interaction score: 1.62

response.value for UAAGUGCUUCCAUGUUUGAGUGU (field: 3' UTR reporter interaction score) = -0.0188

CAAGAACCUCAGUUGCUUUUGU has a reported 3' UTR reporter interaction score of -0.741

Documented 3' UTR reporter interaction score of CACGCUCAUGCACACACCCAC : -3.04

The recorded 3' UTR reporter interaction score for entry CAAAAAUCUCAAUUACUUUUGC equals -0.915

Entry UAGGUUAUCCGUGUUGCCUUCG — recorded 3' UTR reporter interaction score = 1.26

Entry CUCCAGAGGGAAGUACUUUCU — recorded 3' UTR reporter interaction score = 1.27

Recorded 3' UTR reporter interaction score (sequence UGAGGUAGUAAGUUGUAUUGUU ): -0.107

* * *

System: RB1
assay-overview: 3' UTR reporter interaction score (median-centred robust z-score of log2 firefly/Renilla activity); higher = less repression of the 3' UTR reporter
condition-details: HEK293T; 48 h
test-readout: 3' UTR reporter interaction score
Give your answer as a number; write no unit.

Solved entries (count: 8):
UAGUACCAGUACCUUGUGUUCA 0.0822
CAGCAGCAAUUCAUGUUUUGAA 0.649
UACAGUACUGUGAUAACUGAAG 0.982
UUAUGGUUUGCCUGGGACUGAG -0.796
GUGAAAUGUUUAGGACCACUAG -0.00504
UCCAGCUCCUAUAUGAUGCCUUU -0.767
AACCAGCACCCCAACUUUGGAC -1.29
AUUCCUAGAAAUUGUUCAUA -0.707

3' UTR reporter interaction score recorded for this sequence, ACUGCCCUAAGUGCUCCUUCU , is -0.147

The measured 3' UTR reporter interaction score associated with AUUCUAAUUUCUCCACGUCUUUG reads -2.85

// 3' UTR reporter interaction score value for ACAGUCUGCUGAGGUUGGAGC : -1.36

Just so you know, measured 3' UTR reporter interaction score for AUCCCUUGCAGGGGCUGUUGGGU came out at -0.201

Reported 3' UTR reporter interaction score of CAAAGUGCUCAUAGUGCAGGUAG : 0.42

3' UTR reporter interaction score recorded for this sequence, UCCCUGUCCUCCAGGAGCUCA , is -0.85

Short answer for AAUCCUUUGUCCCUGGGUGAGA : 3' UTR reporter interaction score was 0.615

Lookup result for CAGUGCAAUAGUAUUGUCAAAGC ; measured 3' UTR reporter interaction score: 1.9

3' UTR reporter interaction score recorded for this sequence, AGGCGGGGCGCCGCGGGACCGC , is 0.467

Recorded result, UUGCAUAGUCACAAAAGUGA , 3' UTR reporter interaction score: -0.308

Memo: UAAAGCUAGAUAACCGAAAGU , reported 3' UTR reporter interaction score: 0.722

Measured 3' UTR reporter interaction score of CACUCAGCCUUGAGGGCACUUUC : 0.059

Memo: AGUGUGGCUUUCUUAGAGC , reported 3' UTR reporter interaction score: -0.335

// sample UAAUACUGCCUGGUAAUGAUGAC , its 3' UTR reporter interaction score was 0.622

Entry CCUCUGGGCCCUUCCUCCAG ; 3' UTR reporter interaction score = 0.604

The recorded 3' UTR reporter interaction score for entry AUGUAUGUGUGCAUGUGCAUG equals -1.83

Item: AGGGUAAGCUGAACCUCUGAU | 3' UTR reporter interaction score: -1.03
